Source of measurements: the NIST ThermoML archive (doi:10.1016/j.fluid.2016.02.009)

condition summary: 318.15 K; 30000 kPa; Liquid; Vibrating tube method
Answer each item with its documented mass density.
Enter your answer as a number in kg/m3; do not include the unit.

Ask: I am curious: what mass density value has been reported for CCCOCCC [dipropyl ether] ?
Reply: 754.51

Ask: Consider the compound shown here: CC(C)CCOCCC(C)C [di-(3-methylbutyl) ether] What is its recorded mass density?
Reply: 780.14

Ask: State the recorded mass density for this entry: COC(C)(C)C [2-methoxy-2-methylpropane]
Reply: 748.75

Ask: Which measured mass density value corresponds to CCCCCOCCCCC [dipentyl ether] ?
Reply: 787.08

Ask: Quick one: mass density of CCCCOC [butyl methyl ether] ?
Reply: 752.27

Ask: What measured mass density goes with CCCCOCC [butyl ethyl ether] ?
Reply: 756.38

Ask: Request the reported mass density associated with CCOC(C)(C)C [2-ethoxy-2-methylpropane]
Reply: 749.2

Ask: Given CC(C)OC(C)C [diisopropyl ether] , state its recorded mass density.
Reply: 733.74
